measured on: RSV F protein on respiratory syncytial virus (RSV-Long strain) (respiratory syncytial virus (Long strain)) (UniProt P12568)
Sequence (P12568 26-574): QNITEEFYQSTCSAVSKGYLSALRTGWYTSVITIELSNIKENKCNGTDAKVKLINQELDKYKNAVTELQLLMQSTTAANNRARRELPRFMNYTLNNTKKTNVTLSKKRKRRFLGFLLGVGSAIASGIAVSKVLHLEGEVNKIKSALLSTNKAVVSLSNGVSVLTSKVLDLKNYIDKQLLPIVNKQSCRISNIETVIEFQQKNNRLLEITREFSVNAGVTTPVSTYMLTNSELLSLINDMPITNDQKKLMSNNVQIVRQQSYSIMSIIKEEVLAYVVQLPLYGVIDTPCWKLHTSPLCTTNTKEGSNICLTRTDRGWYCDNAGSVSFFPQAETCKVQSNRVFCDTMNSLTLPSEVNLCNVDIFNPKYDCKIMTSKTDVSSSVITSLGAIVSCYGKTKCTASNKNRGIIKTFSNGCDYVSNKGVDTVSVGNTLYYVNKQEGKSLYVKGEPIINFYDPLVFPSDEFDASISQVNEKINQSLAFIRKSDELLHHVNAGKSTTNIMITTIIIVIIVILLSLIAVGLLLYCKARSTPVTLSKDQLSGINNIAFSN
assay name: cell-based or functional assay
assay endpoint: Fold Difference (Control IC50) (fold)
Please respond with the number in fold and leave the unit unwritten.

# binder, Fold Difference (Control IC50) [fold]
measured = [
    ("A1h5 Fab fragment (Fab, V domains shown) VH: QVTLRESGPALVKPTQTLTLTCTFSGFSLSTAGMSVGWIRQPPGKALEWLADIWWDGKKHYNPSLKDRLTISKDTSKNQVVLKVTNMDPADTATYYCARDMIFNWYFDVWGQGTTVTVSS VL: DIQMTQSPSTLSASVGDRVTITCSLSSSVGYMHWYQQKPGKAPKLLIYDTFFHRSGVPSRFSGSGSGTEFTLTISSLQPDDFATYYCFQGSGYPFTFGGGTKVEIK", 3),
    ("P12f2 monoclonal antibody (antibody, V domains shown) VH: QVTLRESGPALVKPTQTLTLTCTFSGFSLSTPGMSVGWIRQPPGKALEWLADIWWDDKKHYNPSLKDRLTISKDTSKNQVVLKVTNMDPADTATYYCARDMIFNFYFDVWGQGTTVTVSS VL: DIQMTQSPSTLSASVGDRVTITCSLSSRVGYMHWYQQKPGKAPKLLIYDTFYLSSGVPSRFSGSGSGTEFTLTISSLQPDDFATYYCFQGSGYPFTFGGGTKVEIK", 24),
]

Input: Using known records, supply Fold Difference (Control IC50) for A13c4 Fab fragment (Fab, V domains shown) VH: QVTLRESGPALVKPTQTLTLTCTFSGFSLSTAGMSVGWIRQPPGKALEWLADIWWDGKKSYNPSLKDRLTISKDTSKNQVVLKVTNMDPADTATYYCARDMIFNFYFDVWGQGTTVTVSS VL: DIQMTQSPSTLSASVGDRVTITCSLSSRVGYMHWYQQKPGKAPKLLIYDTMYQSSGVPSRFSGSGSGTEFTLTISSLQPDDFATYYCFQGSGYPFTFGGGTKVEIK
Output: 21

Input: Using known records, supply Fold Difference (Control IC50) for P12f4 Fab fragment (Fab, V domains shown) VH: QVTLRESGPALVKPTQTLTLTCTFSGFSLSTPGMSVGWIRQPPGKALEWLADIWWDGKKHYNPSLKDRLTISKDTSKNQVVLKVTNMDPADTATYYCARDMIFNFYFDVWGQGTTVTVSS VL: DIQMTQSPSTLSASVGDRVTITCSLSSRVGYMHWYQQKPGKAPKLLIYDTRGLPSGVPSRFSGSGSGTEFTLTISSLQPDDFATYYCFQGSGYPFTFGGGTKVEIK
Output: 15
